Molecular target: T1, HD-PTPCC (coiled-coil domain of HD-PTP, residues 363-712) (UniProt Q9H3S7 363-712)
T1 construct: HD-PTP (His domain protein tyrosine phosphatase; PTPN23), coiled-coil domain, residues 363-712; Form used in the biosensor (SPR) and NMR experiments; immobilisation was on an HTE chip, which probably captures the His tag (surmise); also called CC domain of HD-PTP; WT HD-PTPCC; source: E. coli BL21(DE3), purified (nickel beads, Mono Q anion exchange, Superdex200)
T1 sequence (looked up): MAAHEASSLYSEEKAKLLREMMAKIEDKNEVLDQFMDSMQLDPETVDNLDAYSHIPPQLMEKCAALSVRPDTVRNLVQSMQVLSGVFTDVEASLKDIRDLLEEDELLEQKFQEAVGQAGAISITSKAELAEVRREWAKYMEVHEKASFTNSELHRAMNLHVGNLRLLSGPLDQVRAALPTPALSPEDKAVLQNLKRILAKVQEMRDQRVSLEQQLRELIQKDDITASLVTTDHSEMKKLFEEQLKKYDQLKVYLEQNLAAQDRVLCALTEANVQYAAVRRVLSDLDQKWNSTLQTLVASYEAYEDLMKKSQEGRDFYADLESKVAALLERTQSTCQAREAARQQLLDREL
Assay: SPR; ProteOn XPR36; HD-PTP constructs (50-100 ug/mL) immobilised on an HTE chip, peptides injected (50 uL at 100 uL/min); 25 C; 10 mM HEPES pH 7.4, 150 mM NaCl, 0.05% Tween 20; equilibrium binding model
Details: both partners purified
Outcome measure: Kd (µM)

Binder: SNIKSLSFPKLDSDDSNQKT (peptide, UniProt Q9NZ09 261-280, looked up, also called UBAP1C peptide) [UBAP1C (UBAP1 peptide containing residues 261-280)]
Recorded result: 66.3
